- Tested on: Pol I transcription
- methodSummary: Inhibition of Pol I transcription: 47S precursor rRNA levels by quantitative RT-PCR after 1 h treatment
- Type: cell-based, human
- assayContext: Homo sapiens, 1 h, JHOM1, 1 h, mean n=3; read-out: IC50 Pol I transcription
observedProperty: IC50 (nM)
One number for each entry, in nM.

Ask | Find the measured IC50 of Cc1cnc(CNC(=O)c2c(=O)c3ccc(N4CCCN(C)CC4)nc3n3c2sc2ccccc23)cn1 and report it.
Reply | 202

---

- System: Pol I transcription
- methodSummary: Inhibition of Pol I transcription: 47S precursor rRNA levels by quantitative RT-PCR after 1 h treatment
- Assay type: cell-based, human
- assayContext: Homo sapiens, OV-90, 1 h, OV90, 1 h, mean n=3; read-out: IC50 Pol I transcription
observedProperty: IC50 (nM)
One number for each entry, in nM.

Ask | Name the recorded IC50 of the item Cc1cnc(CNC(=O)c2c(=O)c3ccc(N4CCCN(C)CC4)nc3n3c2sc2ccccc23)cn1 in your answer.
Reply | 117

Where do the numbers come from? From paper PMC7251123.
